The origin of these recorded values is the supplement of paper PMC4709259.

Test system: Jurkat
testMethodNotes: mean cell size (FSC-A) relative to DMSO control (fraction of control); higher = larger cells
conditionDetails: 48 h
Counter-ions that a name gives are not always drawn.
measurementKind: mean cell size
Number, no unit, nothing else.

INSERT INTO measurements (molecule, measurementkind, observed) VALUES
  ('CCCCCCCCCCCCCCCC(=O)O[C@@H]1[C@@H](O)[C@@H](O)[C@@H]([C@H](NC(=O)[C@@H]2C[C@@H](CCC)CN2C)[C@H](C)Cl)O[C@@H]1SC [Clindamycin Palmitate·HCl] (concentration: 25 µM)', 'mean cell size', 1),
  ('Clc1ccc2nsnc2c1NC1=NCCN1 [Tizanidine·HCl] (concentration: 25 µM)', 'mean cell size', 1.01),
  ('CC(C(=O)O)c1ccc(-c2ccccc2)c(F)c1 (centres undefined) [Flurbiprofen] (concentration: 25 µM)', 'mean cell size', 0.974);

Exercise: Requested read-out: mean cell size. Entry: O=C1CN2Cc3c(ccc(Cl)c3Cl)N=C2N1 [Anagrelide] (concentration: 25 µM)
Key: 1

Exercise: Entry N[C@@H](Cc1cc(I)c(Oc2cc(I)c(O)c(I)c2)c(I)c1)C(=O)O [Levothyroxine·Na] (concentration: 25 µM) please
Key: 1.02

Exercise: Entry CN1CCC[C@@H]1CCO[C@](C)(c1ccccc1)c1ccc(Cl)cc1 [Clemastine Fumarate] (concentration: 25 µM) please
Key: 0.985

Exercise: Entry CC(C)[C@H](N)C(=O)OCCOCn1cnc2c(=O)nc(N)[nH]c21 [Valacyclovir·HCl] (concentration: 25 µM) please
Key: 0.987

Exercise: Entry CC(=O)N[C@@H](CS)C(=O)O [Acetylcysteine] (concentration: 25 µM) please
Key: 1.02

Exercise: Entry COC(=O)[C@H]1[C@H]2C[C@@H]3c4[nH]c5cc(OC)ccc5c4CCN3C[C@H]2C[C@@H](OC(=O)c2cc(OC)c(OC)c(OC)c2)[C@@H]1OC [Reserpine] (concentration: 25 µM) please
Key: 0.988

###

Tested on: Jurkat
testMethodNotes: cell count relative to DMSO control (fraction of control); higher = more cells (less growth inhibition)
conditionDetails: 48 h
Where a name gives a salt, the structure may show the parent alone.
measurementKind: cell count

Guide cases for cell count, answers given:
INSERT INTO results (compound, measurementkind, observed) VALUES
  ('CC(C)Nc1cccnc1N1CCN(C(=O)c2cc3cc(NS(C)(=O)=O)ccc3[nH]2)CC1 [Delavirdine Mesylate] (concentration: 25 µM)', 'cell count', 0.887),
  ('CC(CN1c2ccccc2Sc2ccccc21)N(C)C (stereo not drawn) [Promethazine·HCl] (concentration: 25 µM)', 'cell count', 0.717);

Exercise: Requested read-out: cell count. Entry: NCCc1ccc(O)c(O)c1 [Dopamine·HCl] (concentration: 25 µM)
Key: 0.909

###

System: Jurkat
testMethodNotes: mean cell size (FSC-A) relative to DMSO control (fraction of control); higher = larger cells
conditionDetails: 48 h
Counter-ions that a name gives are not always drawn.
Measured mean cell size accompanies every entry in the list below.
Number, no unit, nothing else.

Guide cases for mean cell size, answers given:
INSERT INTO assay_data (compound, observed) VALUES
  ('CCCc1nn(C)c2c(=O)[nH]c(-c3cc(S(=O)(=O)N4CCN(C)CC4)ccc3OCC)nc12 [Sildenafil Citrate] (concentration: 25 µM)', 1.02),
  ('CC(=O)OC[C@H]1O[C@@H]([S-])[C@H](OC(C)=O)[C@@H](OC(C)=O)[C@@H]1OC(C)=O.CCP(CC)CC.[Au+] [Auranofin] (concentration: 250 nM)', 0.983);

# context switch: different compound, same mean cell size
Exercise: // fetch Jurkat mean cell size for Cc1ccccc1C(OCCN(C)C)c1ccccc1 (stereo not drawn) [Orphenadrine Citrate] (concentration: 25 µM)
Key: 0.975
